MEASUREMENT TARGET: T1, recombinant human CD30 extra cellular domain (ECD) protein (human, UniProt P28908 19-379)
T1 construct: Bought from R&D systems; also called rhCD30; human CD30 ECD
T1 sequence: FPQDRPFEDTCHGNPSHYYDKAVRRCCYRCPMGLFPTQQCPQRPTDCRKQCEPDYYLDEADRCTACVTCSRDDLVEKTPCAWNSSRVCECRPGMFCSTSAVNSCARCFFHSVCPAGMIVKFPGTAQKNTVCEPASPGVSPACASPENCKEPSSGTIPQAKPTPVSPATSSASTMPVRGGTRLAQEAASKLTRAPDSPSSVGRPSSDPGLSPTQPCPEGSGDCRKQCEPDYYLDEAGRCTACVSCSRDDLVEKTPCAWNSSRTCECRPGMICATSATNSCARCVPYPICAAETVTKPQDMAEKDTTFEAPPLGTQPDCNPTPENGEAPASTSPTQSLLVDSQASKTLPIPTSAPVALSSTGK
EXPERIMENTAL DETAILS: SPR Biacore T200, His-tagged sdAb/Fab captured, 100.0 nM human CD30 as analyte, single curve
Criterion: Kd strictly less than 30 nM. Met: Yes. Not met: No.

Worked examples follow.
BINDER: AS53574 sdAb (VHH, Camel sdAb) VHH: QVKLVESGGGSVQAGGSLRLSCAASGYIYSSNCMGWFRQAPGKEREWVARIHTGSGSTYYADSVKGRFTISQDNAKNTVYLQMNSLRPEDTAMYDCAAGRVVLGAVVCTNEYWGQGTQVTVSS
CATEGORY LABEL: Yes

BINDER: AS48481 sdAb (VHH, Camel sdAb) VHH: EVQLVASGGGSVQAGETLRLSCTASGFTFADSAMGWYRKGPGNVCDLVAIIRTDGTTYYGDSAKGRFTISRDNAKSTLYLQMNSLKPEDTAVYFCAADRETSFIGGSWCVAKYWDQGTQVTVSS
CATEGORY LABEL: No

BINDER: AS53750 sdAb (VHH, Camel sdAb) VHH: EVQLVESGGGLVQPGGSLRLSCTASGFTDDGPDMAWYRRAPGNECELVSIISADGRTYYTDSVKGRFTISRDNAKNTVFLYLNSLQPEDTAVYYCAPDPRRNCRGGDCCGNWGPGTQVTVSS
CATEGORY LABEL: No

BINDER: AS57659 human Fab (Fab, V domains shown, Human Fab from a synthetic human Fab library, crude protein from E. coli with 6xHistidine tag) VH: EVQLVESGGGLVQPGGSLRLSCAASGFNIYSYYIHWVRQAPGKGLEWVASIYSSYSSTYYADSVKGRFTISADTSKNTAYLQMNSLRAEDTAVYYCARSWFSYPGLDYWGQGTLVTVSS VL: DIQMTQSPSSLSASVGDRVTITCRASQSVSSAVAWYQQKPGKAPKLLIYSASSLYSGVPSRFSGSRSGTDFTLTISSLQPEDFATYYCQQPYYLITFGQGTKVEIK
CATEGORY LABEL: Yes

Is Kd of AS47863 sdAb (VHH, Camel sdAb) VHH: QVQLEESGGGSVQAGETLRLSCTASGSTFGDSDMGWYRQAPGNACELVSIISSDGRTYYVDSVKGRFTISQDNAVSTVYLQMNSLKPEDTGVYYCAADLRQYCRDGRCCGYWGQGTQVTVSS strictly below 30 nM? Yes

Is Kd of AS48433 sdAb (VHH, Camel sdAb) VHH: QIQLVESGGGSVQAGETLRLSCTASGSTFGDSDMGWYRQAPGNACELVSIISSDGRTYYVDSVKGRFTISQDNAVSTVYLQMNSLNPEDTGVYYCAADLRLNCRDGRCCGYWGQGTQVTVSS strictly below 30 nM? Yes

Is Kd of AS57765 human Fab (Fab, V domains shown, Human Fab from a synthetic human Fab library, crude protein from E. coli with 6xHistidine tag) VH: EVQLVESGGGLVQPGGSLRLSCAASGFNIYYSYMHWVRQAPGKGLEWVAYIYPYSGSTSYADSVKGRFTISADTSKNTAYLQMNSLRAEDTAVYYCARPAVHWHGYGGGYYYGLDYWGQGTLVTVSS VL: DIQMTQSPSSLSASVGDRVTITCRASQSVSSAVAWYQQKPGKAPKLLIYSASSLYSGVPSRFSGSRSGTDFTLTISSLQPEDFATYYCQQAYYSLITFGQGTKVEIK strictly below 30 nM? Yes
